experimental-system: E3 ubiquitin-protein ligase XIAP/Tyrosine-protein kinase JAK2 (Homo sapiens) (UniProt O60674+P98170)
Sequence (O60674 whole entry, looked up): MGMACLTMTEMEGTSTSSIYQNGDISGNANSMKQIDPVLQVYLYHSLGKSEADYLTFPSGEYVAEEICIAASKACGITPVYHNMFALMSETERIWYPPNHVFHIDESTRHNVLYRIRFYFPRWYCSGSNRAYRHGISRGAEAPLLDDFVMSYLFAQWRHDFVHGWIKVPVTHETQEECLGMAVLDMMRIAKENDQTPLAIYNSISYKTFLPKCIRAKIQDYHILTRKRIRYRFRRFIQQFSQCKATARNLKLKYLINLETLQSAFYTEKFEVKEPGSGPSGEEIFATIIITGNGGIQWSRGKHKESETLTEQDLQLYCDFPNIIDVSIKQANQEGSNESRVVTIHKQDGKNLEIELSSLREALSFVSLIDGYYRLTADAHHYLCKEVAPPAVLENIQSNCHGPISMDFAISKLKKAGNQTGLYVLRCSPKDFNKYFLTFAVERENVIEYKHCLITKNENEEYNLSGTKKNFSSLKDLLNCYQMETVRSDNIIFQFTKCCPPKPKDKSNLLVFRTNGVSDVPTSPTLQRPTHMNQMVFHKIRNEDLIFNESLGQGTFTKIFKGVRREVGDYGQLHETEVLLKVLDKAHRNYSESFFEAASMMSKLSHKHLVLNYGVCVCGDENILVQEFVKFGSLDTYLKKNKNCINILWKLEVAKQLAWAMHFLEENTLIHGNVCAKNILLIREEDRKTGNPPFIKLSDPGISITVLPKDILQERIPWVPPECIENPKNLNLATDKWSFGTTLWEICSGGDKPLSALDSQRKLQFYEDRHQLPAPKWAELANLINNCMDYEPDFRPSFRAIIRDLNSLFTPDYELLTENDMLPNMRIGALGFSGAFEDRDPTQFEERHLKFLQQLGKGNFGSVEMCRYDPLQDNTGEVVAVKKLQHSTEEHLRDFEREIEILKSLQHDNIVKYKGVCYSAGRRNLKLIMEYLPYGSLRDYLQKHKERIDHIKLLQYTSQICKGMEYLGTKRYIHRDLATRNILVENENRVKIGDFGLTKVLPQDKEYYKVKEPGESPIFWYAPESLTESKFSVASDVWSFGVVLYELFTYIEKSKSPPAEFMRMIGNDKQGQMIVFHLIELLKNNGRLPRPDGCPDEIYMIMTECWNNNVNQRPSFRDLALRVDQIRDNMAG
Sequence (P98170 whole entry, looked up): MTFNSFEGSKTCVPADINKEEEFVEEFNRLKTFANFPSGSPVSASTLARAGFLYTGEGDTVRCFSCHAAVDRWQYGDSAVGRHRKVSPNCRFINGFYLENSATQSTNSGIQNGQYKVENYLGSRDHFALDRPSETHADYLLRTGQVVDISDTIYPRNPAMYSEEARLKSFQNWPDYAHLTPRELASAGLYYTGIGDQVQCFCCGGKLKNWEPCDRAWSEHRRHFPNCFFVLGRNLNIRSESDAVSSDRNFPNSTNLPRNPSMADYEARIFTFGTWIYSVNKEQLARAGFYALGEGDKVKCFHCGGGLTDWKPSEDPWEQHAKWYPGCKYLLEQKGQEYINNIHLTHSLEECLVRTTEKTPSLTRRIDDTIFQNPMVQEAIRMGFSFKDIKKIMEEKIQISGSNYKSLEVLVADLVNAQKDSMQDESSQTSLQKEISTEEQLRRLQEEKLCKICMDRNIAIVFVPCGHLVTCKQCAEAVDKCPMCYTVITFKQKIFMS
assay-procedure: Protac activity at IAP/JAK2 in human THP1 cells assessed as increase in JAK2 degradation up to 10 uM after 24 hrs by Western blot analysis relative to control
Type: cell-based
assay-setup: THP-1
Each entry below carries its reported Activity.

// below: answered compounds
CN[C@@H](C)C(=O)N[C@H](C(=O)N1C[C@@H](NC(=O)CCCCCCCCCN2CCN(CCCOc3ccc(-c4cnc5cccc(-c6cc(F)c(CN7CCS(=O)(=O)CC7)c(F)c6)c5n4)cc3OC)CC2)C[C@H]1C(=O)N[C@@H]1CCCc2ccccc21)C1CCCCC1 = < 35%
CN[C@@H](C)C(=O)N[C@H](C(=O)N1C[C@@H](NC(=O)COCCOCCOCCOCCOc2cc(F)cc(CNc3nc(Nc4cnn(C)c4)ncc3Cl)c2F)C[C@H]1C(=O)N[C@@H]1CCCc2ccccc21)C1CCCCC1 = < 35%
CN[C@@H](C)C(=O)N[C@H](C(=O)N1C[C@@H](NC(=O)COCCOCCOCCOCCN2CCN(CCCOc3ccc(-c4cnc5cccc(-c6cc(F)c(CN7CCS(=O)(=O)CC7)c(F)c6)c5n4)cc3OC)CC2)C[C@H]1C(=O)N[C@@H]1CCCc2ccccc21)C1CCCCC1 = < 35%
CN[C@@H](C)C(=O)N[C@H](C(=O)N1C[C@@H](NC(=O)CCCCCCCCCn2cc(Nc3ncc(Cl)c(NCc4cc(F)ccc4F)n3)cn2)C[C@H]1C(=O)N[C@@H]1CCCc2ccccc21)C1CCCCC1 = < 35%
CN[C@@H](C)C(=O)N[C@H](C(=O)N1C[C@@H](NC(=O)CCCCCCCCCOc2cc(F)cc(CNc3nc(Nc4cnn(C)c4)ncc3Cl)c2F)C[C@H]1C(=O)N[C@@H]1CCCc2ccccc21)C1CCCCC1 = < 35%

Input: Which Activity value belongs to CN[C@@H](C)C(=O)N[C@H](C(=O)N1C[C@@H](NC(=O)COCCOCCOCCOCCn2cc(Nc3ncc(Cl)c(NCc4cc(F)ccc4F)n3)cn2)C[C@H]1C(=O)N[C@@H]1CCCc2ccccc21)C1CCCCC1 ?
Output: < 35%
